- Test system: NCI-H522 lung
- measurement_protocol: NCI tumour cell line growth inhibition, 48 h
Some compounds, each annotated with its measured TGI.
reported_property: TGI (µM)

compound	target_of_assay	reported_relation	test_result
O=c1ssc(Cl)c1Nc1c(Cl)ssc1=O	NCI-H522 lung	=	60.5
CCOC(=O)[C@H](O)[C@@H](O)C(=O)NCc1ccc(C(=O)c2ccccc2)cc1	NCI-H522 lung	>	100
CC(C)(C#N)c1cc(F)cc(C(=O)Nc2cc(Nc3ncccc3-c3ncnc4nc[nH]c34)ccc2F)c1	NCI-H522 lung	>	10
CC(=O)OC(C)c1cc2c(s1)C(=O)c1scc(C(C)OC(C)=O)c1C2=O (stereo not given)	NCI-H522 lung	=	0.571
N#C/C(=C\c1ccc(O)c(O)c1)C(=O)NC1CCC(CC2CCC(NC(=O)/C(C#N)=C/c3ccc(O)c(O)c3)CC2)CC1 (stereo not given)	NCI-H522 lung	=	4.71

----------
- Tested on: NCI-H23 lung
- measurement_protocol: NCI tumour cell line growth inhibition, 48 h

compound	TGI
O=C(O)Cc1cccc2c1Oc1ccccc1S2	> 100 µM
O=C(O)NCc1ccccc1 (tested in a mixture with another compound)	> 100 µM
O=C1OCCC1C(O)C1c2ccccc2-c2ccccc21 (stereo not given)	> 100 µM
CCCc1c[nH]c(-c2ccc(-c3cc(CCC)c(C=O)[nH]3)s2)c1	42.4 µM
COc1ccc(OC)c(C23CCCC(C2)N(C)CC3)c1 (stereo not given)	> 100 µM
O=C(CCCN1CCC2(CC1)NC(=O)c1ccccc1O2)c1ccc(F)cc1	> 100 µM
COc1ccc(N=C2C(=Nc3ccc(OC)cc3)N(S(=O)(=O)c3ccccc3)C(=S)N2c2ccccc2)cc1	> 100 µM
CC(=O)OC(C)c1cc2c(s1)C(=O)c1scc(C(C)OC(C)=O)c1C2=O (stereo not given)	0.398 µM
CCN1C(=O)NC(=O)C(C)(N2C(=O)c3c(F)c(F)c(F)c(F)c3C2=O)C1=O (stereo not given)	17.7 µM
CC(=O)O[C@]1(C)OC(=O)[C@@H](C)N1[N+](=O)[O-]	> 100 µM

----------
In this section we review reported TGI values for a set of compounds.
- System: SNB-75 CNS
- measurement_protocol: NCI tumour cell line growth inhibition, 48 h
reported_property: TGI (µM)

compound	target_of_assay	reported_property	reported_relation	test_result
CCOC(=O)/C=C/c1cc2cc(-c3csc4ccccc34)ccc2[nH]1	SNB-75 CNS	TGI	=	20.8
O=C(O)NCc1ccccc1 (tested in a mixture with another compound)	SNB-75 CNS	TGI	=	60.6
CN[C@@H](C)[C@@H](N)c1ccccc1	SNB-75 CNS	TGI	>	100
CCCCCC(=O)Nc1nc[nH]c1C(N)=O	SNB-75 CNS	TGI	>	100
CNC(=O)c1ccc2cc(C3(O)CCn4cncc43)ccc2c1 (centres undefined)	SNB-75 CNS	TGI	>	100
COc1ccc2c(c1)[n+]([O-])c(-c1ccccc1)c(N)[n+]2[O-]	SNB-75 CNS	TGI	>	100
O=C(CF)N(O)c1ccc(/C=C/c2ccccc2)cc1	SNB-75 CNS	TGI	=	31.9
Cc1ccc(S(=O)(=O)/N=C(\N)N(C)N=O)cc1	SNB-75 CNS	TGI	>	100
COc1cc(/C=C/C(=O)OCCc2ccccc2)ccc1O	SNB-75 CNS	TGI	=	30.2
CCOC(=O)C1=C(C)NC2SC(=O)/C(=C\c3ccccc3O)N2C1c1ccccc1 (centres undefined)	SNB-75 CNS	TGI	=	70.8
CC[C@H](Nc1nc(N)nc(C)c1C#N)c1nc2cccc(NCc3ccc(C(=O)NO)cc3)c2c(=O)n1-c1ccccc1	SNB-75 CNS	TGI	=	3.97
C/C1=C/C2=CC(C)C[C@@H]2C(=O)[C@]2(C)C(=O)CC(C)(C)[C@H]2CC1=O (some centres undefined)	SNB-75 CNS	TGI	>	50
CCOC(=O)c1c2c(n(Cc3ccccc3)c1C)-c1ccccc1C(=O)C2=O	SNB-75 CNS	TGI	=	24.7
NNC(=S)N/N=C(/C(=O)Nc1cc(Cl)ccc1Cl)C1C(=O)Nc2ccccc2S1=O (centres undefined)	SNB-75 CNS	TGI	>	100
Cc1ccc(C)c(NC(=O)NCc2ccc(Cl)cc2)c1	SNB-75 CNS	TGI	=	6.26
CCOP(=O)(OCC)C(N)Cc1ccc(OC)c(OC)c1 (centres undefined)	SNB-75 CNS	TGI	>	100
O=C(O)CCSCc1ccc(I)cc1	SNB-75 CNS	TGI	>	100
O=C(CCl)NC(Cc1ccc(F)cc1)C(=O)O (centres undefined)	SNB-75 CNS	TGI	>	100
CCOC(=O)c1cc2c(nc1N)-c1ncccc1CC2	SNB-75 CNS	TGI	>	100
CN(N=O)C(=O)N[C@@H](C=O)[C@@H](O)[C@H](O)[C@H](O)CO	SNB-75 CNS	TGI	>	750
COC(=O)[C@]12CC[C@@H](C)[C@H](C)[C@@H]1C1=CC[C@@H]3[C@@]4(C)C(C=O)=C[C@@](C)(COC(=O)c5ccco5)[C@@H]4C(=O)C[C@@]3(C)[C@]1(C)CC2	SNB-75 CNS	TGI	>	100
O=C(CCCN1CCC2(CC1)NC(=O)c1ccccc1O2)c1ccc(F)cc1	SNB-75 CNS	TGI	>	100
Fc1ccc(OCc2nc3cc(C(F)(F)F)ccc3nc2-c2ccccc2)cc1	SNB-75 CNS	TGI	>	100
C=CC(C)(O)/C=C/C=C(\C)C(CC1OC1(C)C)OC(=O)/C(C)=C\C (centres undefined)	SNB-75 CNS	TGI	>	100
Cn1nnnc1N/N=C/c1ccccc1	SNB-75 CNS	TGI	>	10
O=C(Nc1cccc(Oc2nnc(Cl)c3ccccc23)c1)Nc1ccc(Cl)c(C(F)(F)F)c1	SNB-75 CNS	TGI	=	5.63
COc1ccc2c(c1)C(=O)c1c-2c(Nc2ccc(C(C)=O)cc2)nc2ccccc12	SNB-75 CNS	TGI	>	100
CO/N=C(\C)c1cccc(Nc2cc(-c3ccccc3)nc3c(O)cccc23)c1	SNB-75 CNS	TGI	=	96.2
O=C1C2=Nc3ccccc3C(O)N2c2ccccc21 (centres undefined)	SNB-75 CNS	TGI	=	90.4
CCSC1(SCC)CC(Cc2ccc(OC)cc2)N(C=NC(C)(C)C)C1 (centres undefined)	SNB-75 CNS	TGI	>	100
COc1ccc(C(=O)C(C(=O)C(=O)Nc2ccc(Cl)c(Cl)c2)c2ccc(OC)cc2)cc1 (centres undefined)	SNB-75 CNS	TGI	>	100
C1=Nc2sc3c(c2C2=NCCN12)CCCC3	SNB-75 CNS	TGI	=	34.9
Cc1ccc(Nc2n[nH]c(=S)s2)cc1	SNB-75 CNS	TGI	>	100
CC(=O)OC/C=C/Cn1ncc(=O)[nH]c1=O	SNB-75 CNS	TGI	>	100
ClCCN1CCOC1=Nc1ccc2c(c1)CCCC2	SNB-75 CNS	TGI	=	28.7
N#Cc1ccc(N2Cc3ccccc3OC3=C2C(=O)c2c(O)ccc(O)c2C3=O)cc1	SNB-75 CNS	TGI	=	2.68
CC(C)(C)c1[nH]cnc1/C=c1\[nH]c(=O)/c(=C/c2ccccc2)[nH]c1=O	SNB-75 CNS	TGI	=	44
O=C1c2ccccc2C(=O)c2c(NCCNCCO)ccc(O)c21	SNB-75 CNS	TGI	=	15.7
O=C(Nc1ccc(CN2CCOCC2)cc1)c1[nH]ncc1Nc1ncnc2sccc12	SNB-75 CNS	TGI	=	2.04
CC(Oc1ccc(OCC2CCCCC2)cc1)C(N)=O (centres undefined)	SNB-75 CNS	TGI	>	100
COc1ccc2c3c(n(Cc4ccccc4)c(=O)c2c1)-c1cc(OC)c(OC)cc1C3C (centres undefined)	SNB-75 CNS	TGI	=	45.4
Oc1c2c(c3c4c1N=CC=4CCN=3)-c1c(Br)cc(Br)cc1CCN2	SNB-75 CNS	TGI	=	22.6
Nc1nncc2c1ccn2C1OC(CO)C(O)C1O (centres undefined)	SNB-75 CNS	TGI	>	100
COc1cc(N/N=C/C#N)cc(OC)c1OC	SNB-75 CNS	TGI	>	10

----------
- System: HL-60(TB) leukemia
- measurement_protocol: NCI tumour cell line growth inhibition, 48 h; in the data active = GI50 below about 0.43 µM; inactive = the rest
Labels: Y (active), N (inactive)

compound	category
CC(C)(C#N)c1cc(F)cc(C(=O)Nc2cc(Nc3ncccc3-c3ncnc4nc[nH]c34)ccc2F)c1	Y
C=CC[P+](c1ccccc1)(c1ccccc1)c1ccccc1	N
O=C(Nc1cccc(Oc2nnc(Cl)c3ccccc23)c1)Nc1ccc(Cl)c(C(F)(F)F)c1	Y
CC(=O)OCC(=O)O[C@@H]1C[C@]2(C(C)C)O[C@@]1(C)[C@@H]1CC[C@@H](C)[C@H]1[C@@H]2OC(=O)/C=C/c1ccccc1	N
O=C(Nc1ccc(Oc2ccc3nc(NC(=O)c4ccccc4)[nH]c3c2)cc1)Nc1cc(C(F)(F)F)ccc1F	N
CO/N=C(\C)c1cccc(Nc2cc(-c3ccccc3)nc3c(O)cccc23)c1	N
O=C1c2ccccc2C(=Cc2ccccc2)c2ccccc21	N
CNC(=O)c1ccc2cc(C3(O)CCn4cncc43)ccc2c1 (stereo not drawn)	N
